Target: CDK-9/Cyclin T1 (Homo sapiens)
Experiment: CDK inhibition assay, CDK-9/Cyclin T1 against substrate peptide, 33P-ATP
Assay type: biochemical
Details: at 500 nM; read-out: inhibition against CDK9
Consider the following molecules; for each one, report its inhibition at 0.5 µM.

Example entries begin here.
smiles: Clc1ccc(-c2cnc3[nH]cc(-c4ccnc(NC5CCCC5)n4)c3c2)cc1
inhibition at 0.5 µM: > 50%

smiles: Cc1ccc(-c2cnc3[nH]cc(-c4ccnc(NCCc5ccccc5)n4)c3c2)cc1
inhibition at 0.5 µM: > 70%

smiles: CSc1ccc(-c2cnc3[nH]cc(-c4ccnc(NC5CCCC5)n4)c3c2)cc1
inhibition at 0.5 µM: > 50%

smiles: CCc1ccccc1-c1cnc2[nH]cc(-c3ccnc(NC4CC4)n3)c2c1
inhibition at 0.5 µM: > 70%

Q: Specify measured inhibition at 0.5 µM for CC(=O)c1ccc(-c2cnc3[nH]cc(-c4ccnc(NCCc5ccccc5)n4)c3c2)cc1 .
Ans: > 50%

----------
Can you tell me inhibition at 0.5 µM for the items I'm about to list?
Target: CDK-9/Cyclin T1 (Homo sapiens, UniProt P50750)
Sequence (P50750 whole entry): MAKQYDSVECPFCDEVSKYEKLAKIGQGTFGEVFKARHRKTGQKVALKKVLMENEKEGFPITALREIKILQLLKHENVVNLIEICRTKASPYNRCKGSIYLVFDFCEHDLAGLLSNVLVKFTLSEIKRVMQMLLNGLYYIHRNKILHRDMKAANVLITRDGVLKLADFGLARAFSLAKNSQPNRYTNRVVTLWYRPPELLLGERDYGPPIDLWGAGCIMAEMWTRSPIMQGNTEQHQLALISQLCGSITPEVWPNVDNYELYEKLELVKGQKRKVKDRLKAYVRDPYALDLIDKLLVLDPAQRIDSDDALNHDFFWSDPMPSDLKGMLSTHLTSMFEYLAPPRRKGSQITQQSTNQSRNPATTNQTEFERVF
Sequence (O60563 whole entry partner): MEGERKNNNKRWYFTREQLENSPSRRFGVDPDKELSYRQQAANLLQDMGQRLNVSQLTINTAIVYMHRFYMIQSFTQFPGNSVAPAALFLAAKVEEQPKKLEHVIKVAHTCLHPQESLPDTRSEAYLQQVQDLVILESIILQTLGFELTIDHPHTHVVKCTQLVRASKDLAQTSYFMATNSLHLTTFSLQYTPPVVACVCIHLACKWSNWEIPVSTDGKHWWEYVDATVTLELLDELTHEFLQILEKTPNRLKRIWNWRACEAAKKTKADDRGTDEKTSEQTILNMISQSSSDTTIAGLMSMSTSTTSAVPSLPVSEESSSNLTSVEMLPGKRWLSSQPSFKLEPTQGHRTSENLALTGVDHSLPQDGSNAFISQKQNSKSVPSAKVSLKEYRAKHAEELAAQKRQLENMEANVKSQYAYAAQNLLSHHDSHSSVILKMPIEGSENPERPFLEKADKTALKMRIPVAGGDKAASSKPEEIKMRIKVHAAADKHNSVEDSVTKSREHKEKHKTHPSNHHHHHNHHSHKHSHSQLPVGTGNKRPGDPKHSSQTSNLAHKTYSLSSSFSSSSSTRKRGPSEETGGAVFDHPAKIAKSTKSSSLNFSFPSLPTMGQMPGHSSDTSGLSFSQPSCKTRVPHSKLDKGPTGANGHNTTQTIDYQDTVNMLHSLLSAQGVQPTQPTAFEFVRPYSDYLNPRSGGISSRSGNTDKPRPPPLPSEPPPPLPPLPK
Test: CDK inhibition assay, CDK-9/Cyclin T1 against substrate peptide, 33P-ATP
Assay type: biochemical
Settings: at 500 nM; read-out: inhibition against CDK9

smiles: Fc1ccc(-c2cnc3[nH]cc(-c4ccnc(NCCc5ccccc5)n4)c3c2)cc1
assay result: > 50%
--
smiles: FC(F)(F)c1cccc(-c2cnc3[nH]cc(-c4ccnc(NCCc5ccccc5)n4)c3c2)c1
assay result: > 70%
--
smiles: c1ccc(CCNc2nccc(-c3c[nH]c4ncc(-c5nccc6ccccc56)cc34)n2)cc1
assay result: > 50%
--
smiles: CSc1ccc(-c2cnc3[nH]cc(-c4ccnc(NCCc5ccccc5)n4)c3c2)cc1
assay result: > 50%
--
smiles: O=Cc1ccc(-c2cnc3[nH]cc(-c4ccnc(NC5CC5)n4)c3c2)cc1
assay result: > 70%

Below are some molecules; for each one, tell me its inhibition at 0.5 µM.
1. Cc1cccc(-c2cnc3[nH]cc(-c4ccnc(NC5CCCC5)n4)c3c2)c1
2. Clc1ccc(-c2cnc3[nH]cc(-c4ccnc(NC5CC5)n4)c3c2)cc1
3. COc1ccc(-c2cnc3[nH]cc(-c4ccnc(NCCc5ccccc5)n4)c3c2)cc1

Ans:
1: > 50%; 2: > 70%; 3: > 50%

----------
Molecular target: CDK-2/cyclin A (Homo sapiens)
Assay: CDK inhibition assay, CDK-2/cyclin A against Histone HI, 33P-ATP
Assay type: biochemical
Conditions: at 500 nM; Table-6; read-out: In vitro CDK2 % of inhibition
What inhibition at 0.5 µM was measured for each of the following?

molecule: Cc1cccc(-c2cnc3[nH]cc(-c4ccnc(NC5CCCCCC5)n4)c3c2)c1 [1A47]
inhibition at 0.5 µM: > 50%
//
molecule: COc1ccc(-c2cnc3[nH]cc(-c4ccnc(NC5CC5)n4)c3c2)cc1 [1A11]
inhibition at 0.5 µM: > 70%
//
molecule: c1ccc2c(-c3cnc4[nH]cc(-c5ccnc(NC6CC6)n5)c4c3)cccc2c1 [1A14]
inhibition at 0.5 µM: > 50%

Could you tell me inhibition at 0.5 µM for each of these molecules? They are listed below.
1. c1ccc2sc(-c3cnc4[nH]cc(-c5ccnc(NC6CCCC6)n5)c4c3)cc2c1 [1A38]
2. c1cncc(-c2cnc3[nH]cc(-c4ccnc(NC5CC5)n4)c3c2)c1 [1A15]

Ans:
> 50%
> 50%

----------
Target: CDK-9/Cyclin T1 (Homo sapiens, UniProt P50750)
Assay: CDK inhibition assay, CDK-9/Cyclin T1 against substrate peptide, 33P-ATP
Type: biochemical
Details: at 500 nM; Table-6; read-out: In vitro CDK9 % of inhibition
Answer each item with its documented inhibition at 0.5 µM.

smiles: Fc1ccc(-c2cnc3[nH]cc(-c4ccnc(NC5CCCCCC5)n4)c3c2)cc1
target or system: CDK-9/Cyclin T1 (Homo sapiens, UniProt P50750)
measure name: inhibition at 0.5 µM
assay result: > 50%

smiles: c1cc(-c2c[nH]c3ncc(-c4ccoc4)cc23)nc(NC2CCCC2)n1
target or system: CDK-9/Cyclin T1 (Homo sapiens, UniProt P50750)
measure name: inhibition at 0.5 µM
assay result: > 50%

smiles: CCc1ccccc1-c1cnc2[nH]cc(-c3ccnc(NC4CCCC4)n3)c2c1
target or system: CDK-9/Cyclin T1 (Homo sapiens, UniProt P50750)
measure name: inhibition at 0.5 µM
assay result: > 50%

smiles: COc1ccc2[nH]c(-c3cnc4[nH]cc(-c5ccnc(NC6CC6)n5)c4c3)cc2c1
target or system: CDK-9/Cyclin T1 (Homo sapiens, UniProt P50750)
measure name: inhibition at 0.5 µM
assay result: > 50%

smiles: Clc1ccc(-c2cnc3[nH]cc(-c4ccnc(NC5CC5)n4)c3c2)cc1
target or system: CDK-9/Cyclin T1 (Homo sapiens, UniProt P50750)
measure name: inhibition at 0.5 µM
assay result: > 70%

smiles: c1ccc2sc(-c3cnc4[nH]cc(-c5ccnc(NC6CC6)n5)c4c3)cc2c1
target or system: CDK-9/Cyclin T1 (Homo sapiens, UniProt P50750)
measure name: inhibition at 0.5 µM
assay result: > 70%

smiles: FC(F)(F)Oc1ccc(-c2cnc3[nH]cc(-c4ccnc(NC5CCCC5)n4)c3c2)cc1
target or system: CDK-9/Cyclin T1 (Homo sapiens, UniProt P50750)
measure name: inhibition at 0.5 µM
assay result: > 50%

smiles: Cc1ccc(-c2cnc3[nH]cc(-c4ccnc(NC5CCCCCC5)n4)c3c2)cc1
target or system: CDK-9/Cyclin T1 (Homo sapiens, UniProt P50750)
measure name: inhibition at 0.5 µM
assay result: > 50%

Your task in this section: give inhibition at 0.5 µM for each listed record.
1. COc1ccc(-c2cnc3[nH]cc(-c4ccnc(NC5CC5)n4)c3c2)cc1
2. FC(F)(F)c1cccc(-c2cnc3[nH]cc(-c4ccnc(NC5CCCCCC5)n4)c3c2)c1

Ans:
1: > 70%; 2: > 50%

----------
Field: inhibition at 0.5 µM. Provide a value for each of the compounds that follow.
Molecular target: CDK-9/Cyclin T1 (Homo sapiens, UniProt P50750)
Experiment: CDK inhibition assay, CDK-9/Cyclin T1 against substrate peptide, 33P-ATP
Assay type: biochemical
Settings: at 500 nM; read-out: inhibition against CDK9

Use the examples below as a reference point.
smiles: FC(F)(F)c1cccc(-c2cnc3[nH]cc(-c4ccnc(NC5CCCC5)n4)c3c2)c1
measure name: inhibition at 0.5 µM
assay result: > 50%
//
smiles: CCc1ccccc1-c1cnc2[nH]cc(-c3ccnc(NC4CCCCCC4)n3)c2c1
measure name: inhibition at 0.5 µM
assay result: > 70%
//
smiles: Cc1cccc(-c2cnc3[nH]cc(-c4ccnc(N)n4)c3c2)c1
measure name: inhibition at 0.5 µM
assay result: > 70%

Now consider the entry below.
Q: Input CSc1ccc(-c2cnc3[nH]cc(-c4ccnc(NC5CC5)n4)c3c2)cc1 , output reported inhibition at 0.5 µM.
Ans: > 70%
